- test.system: Streptokinase A (Streptococcus pyogenes serotype M1, UniProt P10520)
- Sequence (P10520 whole entry): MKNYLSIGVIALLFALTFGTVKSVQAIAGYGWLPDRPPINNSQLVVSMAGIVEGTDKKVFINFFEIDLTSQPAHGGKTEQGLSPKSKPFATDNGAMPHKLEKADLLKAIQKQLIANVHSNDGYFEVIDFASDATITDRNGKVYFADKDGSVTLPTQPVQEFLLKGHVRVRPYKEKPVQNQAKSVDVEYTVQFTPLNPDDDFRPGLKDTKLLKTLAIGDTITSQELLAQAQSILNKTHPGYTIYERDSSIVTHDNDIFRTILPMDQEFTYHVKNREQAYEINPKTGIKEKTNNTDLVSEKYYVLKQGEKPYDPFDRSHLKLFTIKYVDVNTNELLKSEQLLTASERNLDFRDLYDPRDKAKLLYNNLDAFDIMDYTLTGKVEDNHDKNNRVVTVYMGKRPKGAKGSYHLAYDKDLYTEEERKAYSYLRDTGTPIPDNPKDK
- test.protocol: viability-normalized secreted streptokinase activity reduction – plasminogen activation absorbance, OD405, dose response (AID 1914);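 also: secreted streptokinase activity via plasminogen activation per viability signal from cell pellet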
- Type: functional, Streptococcus pyogenes M1 GAS
The source made the active and inactive calls. Rule as the data show it: actives have a measured EC50 and inactives only a lower limit.
Answer each item with its documented EC50.

Problem: What does the data say about its EC50? Entry: CCCC(=O)NC(c1ccco1)c1cc(Cl)c2cccnc2c1O (centres undefined)
Solution: > 150 µM (not active)

Problem: And for "COc1ccc(-c2cc(C3CCN(Cc4cccc(C(F)(F)F)c4)CC3)[nH]n2)cc1" ?
Solution: > 150 µM (not active)

Problem: Moving on to "COc1ccc(-c2nc(-c3ccc4c(c3)OCO4)[nH]c2-c2ccc(OC)cc2)cc1"
Solution: 2.07 µM (active)

Problem: Consider next the molecule "O=c1c2ccccc2sn1-c1ccccc1" in the same way.
Solution: > 150 µM (not active)

Problem: What do we get for CC(C)NC(=O)NC(=O)CSc1nnc(COc2ccccc2F)n1C(C)C1CC2CCC1C2 (centres undefined) ?
Solution: 16.8 µM (active)

Problem: How about this molecule: "CCC(CC)NC(=O)c1oc2ccccc2c1COc1ccccc1"
Solution: 10.6 µM (active)

Problem: Thanks! And "COc1ccc(-c2ccc3oc(-c4ccc(OC)cc4)c(C#CCO)c3c2)cc1" ?
Solution: > 150 µM (not active)

Problem: Moving on to the next molecule: "CC(C)C[C@H](NC(=O)c1[nH]cnc1C(=O)N1CCc2ccccc2C1)C(=O)OCc1ccccc1"
Solution: > 150 µM (not active)

Problem: Then what about the molecule "COc1ccc(CCNC(=O)c2cc(-c3ccc(Cl)c(Cl)c3)oc2C)cc1" ?
Solution: 6.21 µM (inconclusive)

Problem: Also "O=C(NC(=S)Nc1ccccc1N1CCCC1)c1ccccc1Br" ?
Solution: 6.61 µM (active)

Problem: Please give the result for "Cc1cccc2sc(NNC(=O)c3ccc(S(=O)(=O)N4CCc5ccccc5C4)cc3)nc12" too.
Solution: > 150 µM (not active)

Problem: Okay, and "Cc1cccc(C(=O)NCC(=O)N2CCOCC2)c1" ?
Solution: > 150 µM (not active)

Problem: Repeat for the following molecule: CN/C(=N/c1cc(Cl)ccc1Cl)SC1CC(=O)N(c2ccc(C(=O)OC)cc2)C1=O (centres undefined)
Solution: > 50 µM (not active)

Problem: One more molecule: "Cc1ccc(-c2cc(C(=O)N3CCN(c4ccccc4O)CC3)c3ccccc3n2)cc1"
Solution: > 150 µM (not active)

Problem: Moving on to the next molecule: "COc1ccccc1N1CCN(Cc2nc(N)nc(Nc3ccc(C)c(Cl)c3)n2)CC1"
Solution: > 150 µM (inconclusive)

Problem: Continue with "Clc1cc(CSc2ccccc2)nc(-c2ccccc2)n1"
Solution: 33.8 µM (active)

Problem: Now the same for "COc1ccc(Cn2c(-c3ccco3)nc3oc4cc(OC)ccc4c(=O)c3c2=O)cc1"
Solution: > 150 µM (not active)

Problem: Record: CC(=O)N(CCC(Cc1ccccc1)c1ccc2c(c1)OCO2)Cc1ccc(Cl)cc1 (centres undefined)
Solution: 58.5 µM (active)

Problem: Similarly, "COc1ccc2ncc(S(=O)(=O)c3ccccc3)c(N3CCN(c4ccccc4)CC3)c2c1" ?
Solution: > 150 µM (not active)

Data provenance is ChEMBL document CHEMBL1201862.
